# credit: patent US8916570B2

Molecular target: hA2AAR (Homo sapiens, UniProt P29274)
Construct: expressed in transfected cells
Sequence (P29274 whole entry): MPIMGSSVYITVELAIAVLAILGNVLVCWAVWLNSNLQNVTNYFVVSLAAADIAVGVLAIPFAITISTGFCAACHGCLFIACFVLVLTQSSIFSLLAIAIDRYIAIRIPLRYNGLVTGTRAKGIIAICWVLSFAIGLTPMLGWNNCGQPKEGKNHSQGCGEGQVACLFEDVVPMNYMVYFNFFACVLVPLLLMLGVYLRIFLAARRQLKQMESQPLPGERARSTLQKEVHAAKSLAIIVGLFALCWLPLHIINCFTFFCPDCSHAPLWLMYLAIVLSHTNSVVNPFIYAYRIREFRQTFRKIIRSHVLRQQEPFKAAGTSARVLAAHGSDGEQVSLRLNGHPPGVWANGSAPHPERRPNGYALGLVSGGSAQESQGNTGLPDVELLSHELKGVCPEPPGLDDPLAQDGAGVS
Assay: Binding at hA2AAR, HEK-293 membranes (Example 7)
Conditions: read-out: % inhibition hA2A
REPORTED_ENDPOINT: inhibition at 10 µM (%)

Check out these entries, answers already filled in.
CNC(=O)[C@@]12C[C@@H]1[C@@H](n1cnc3c(NC)nc(C#Cc4ccc(Cl)cc4)nc31)[C@H](O)[C@@H]2O = 30
CNC(=O)[C@@]12C[C@@H]1[C@@H](n1cnc3c(NC)nc(C#Cc4ccc(F)c(F)c4)nc31)[C@H](O)[C@@H]2O = 6
CCc1ccc(C#Cc2nc(NC)c3ncn([C@H]4[C@H](O)[C@H](O)[C@]5(C(=O)NC)C[C@H]45)c3n2)cc1 = 38
CNC(=O)[C@@]12C[C@@H]1[C@@H](n1cnc3c(NC)nc(C#Cc4cccc(F)c4)nc31)[C@H](O)[C@@H]2O = 10
CNC(=O)[C@@]12C[C@@H]1[C@@H](n1cnc3c(NC)nc(C#Cc4cccc(N)c4)nc31)[C@H](O)[C@@H]2O = 19
CNC(=O)[C@@]12C[C@@H]1[C@@H](n1cnc3c(NC)nc(C#Cc4ccccc4Cl)nc31)[C@H](O)[C@@H]2O = 30

A = CNC(=O)[C@@]12C[C@@H]1[C@@H](n1cnc3c(NC)nc(C#Cc4ccccc4F)nc31)[C@H](O)[C@@H]2O
B = CNC(=O)[C@@]12C[C@@H]1[C@@H](n1cnc3c(NC)nc(C#Cc4cc(F)cc(F)c4)nc31)[C@H](O)[C@@H]2O
Between A and B , which one has the lower reported inhibition at 10 µM value? Refer to your chosen entry by its label in the reply.
A
(A: 17%, B: 47%)

a = CNC(=O)[C@@]12C[C@@H]1[C@@H](n1cnc3c(NCc4cccc(Cl)c4)nc(C#Cc4ccc(N)cc4)nc31)[C@H](O)[C@@H]2O [Compound 332a]
b = CNC(=O)[C@@]12C[C@@H]1[C@@H](n1cnc3c(NCc4cccc(Cl)c4)nc(C#Cc4ccccc4)nc31)[C@H](O)[C@@H]2O
c = CNC(=O)[C@@]12C[C@@H]1[C@@H](n1cnc3c(NCc4cccc(Cl)c4)nc(C#Cc4ccc(-c5ccccc5)cc4)nc31)[C@H](O)[C@@H]2O
d = CNC(=O)[C@@]12C[C@@H]1[C@@H](n1cnc3c(NC)nc(C#Cc4ccccc4)nc31)[C@H](O)[C@@H]2O
Rank descending by inhibition at 10 µM. Sort the labels as requested; that list is your answer.
a, b, d, c

A = CNC(=O)[C@@]12C[C@@H]1[C@@H](n1cnc3c(NC)nc(C#Cc4ccc(Br)cc4)nc31)[C@H](O)[C@@H]2O
B = CNC(=O)[C@@]12C[C@@H]1[C@@H](n1cnc3c(NC)nc(C#Cc4ccc(C(C)=O)cc4)nc31)[C@H](O)[C@@H]2O
C = CNC(=O)[C@@]12C[C@@H]1[C@@H](n1cnc3c(NCc4cccc(Cl)c4)nc(C#Cc4ccc(F)cc4)nc31)[C@H](O)[C@@H]2O
List the 3 entries from lowest inhibition at 10 µM to highest inhibition at 10 µM value. Sort the labels as requested; that list is your answer.
A, C, B

1 = CNC(=O)[C@@]12C[C@@H]1[C@@H](n1cnc3c(NC)nc(C#Cc4ccc(-c5ccccc5)cc4)nc31)[C@H](O)[C@@H]2O
2 = CNC(=O)[C@@]12C[C@@H]1[C@@H](n1cnc3c(NC)nc(C#Cc4ccccn4)nc31)[C@H](O)[C@@H]2O
3 = CNC(=O)[C@@]12C[C@@H]1[C@@H](n1cnc3c(NCc4cccc(Cl)c4)nc(C#Cc4ccccc4Cl)nc31)[C@H](O)[C@@H]2O
4 = CNC(=O)[C@@]12C[C@@H]1[C@@H](n1cnc3c(NC)nc(C#Cc4ccc(F)cc4)nc31)[C@H](O)[C@@H]2O
Rank descending by inhibition at 10 µM. Sort the labels as requested; that list is your answer.
3, 1, 4, 2
(3: 52%, 1: 29%, 4: 19%, 2: 13%)

1 = CNC(=O)[C@@]12C[C@@H]1[C@@H](n1cnc3c(NCc4cccc(Cl)c4)nc(C#Cc4ccc(F)c(F)c4)nc31)[C@H](O)[C@@H]2O
2 = CNC(=O)[C@@]12C[C@@H]1[C@@H](n1cnc3c(NC)nc(C#Cc4ccc(C(C)(C)C)cc4)nc31)[C@H](O)[C@@H]2O
Between 1 and 2 , which one has the lower reported inhibition at 10 µM value? Refer to your chosen entry by its label in the reply.
2
(2: 7%, 1: 41%)
